- System: M14 melanoma
- run description: NCI-60 one-dose screen, 48 h
- test settings: 10 µM unless noted
This is part of a sample that, as a whole, favours compounds with a hit. Of some 83,000 tested, about 20% had one in any assay. Active and inactive are the calls of the source. The calls were made as follows: active = growth percent below 10; inactive = the rest.
// one of true (active), false (inactive), no free text

Check out these entries, answers already filled in.
N#Cc1c(-c2cccs2)cc(-c2cnccn2)nc1SCC(=O)NNC(=S)Nc1ccc(F)cc1	false
CN(C)C(=O)C1=NC(CO)C(=O)N(c2ccc(Cl)cc2)N1 (centres undefined)	false
CS(=O)c1nccc(-c2c(-c3ccc(F)c(OCc4ccc(F)cc4)c3)nc3sccn23)n1 (centres undefined)	false
Oc1ccccc1-c1nnc(SCc2ccc(O)c3ncccc23)n1-c1ccccc1	true
CCN1C(=O)N(CC)C2C1NN=C1SC(c3ccccc3)=CC(=O)N12 (centres undefined)	true

Status in this test for O=C(CN1C(=O)S/C(=C\c2ccccc2)C1=O)Nc1ccc(C(=O)/C=C/c2cc3ccccc3nc2Cl)cc1 ?
false

Status in this test for COc1ccc([C@H]2[C@H](O)C(=O)N2c2cc(OC)c(OC)c(OC)c2)cc1O ?
true

Status in this test for COc1cc2c3c(n(CCCN4CCC[C@H]4C(N)=O)c(=O)c2cc1OC)-c1cc2c(cc1C3=O)OCO2 ?
true

Status in this test for CS(=O)(=O)c1nccc(-c2c(-c3ccc(F)c(OCCc4ccccc4)c3)nc3sccn23)n1 ?
false

###

- Tested on: TK-10 renal
- run description: NCI-60 one-dose screen, 48 h (100 = growth as untreated, 0 = no growth, -100 = all killed)
- test settings: 10 µM unless noted
This is part of a sample that, as a whole, favours compounds with a hit. Of some 83,000 tested, about 20% had one in any assay.
Some molecules, each annotated with its measured growth.
Expressed in %, but write only the number.

O=c1oc2ccc(-c3ccc(F)cc3F)cc2c(=O)n1-c1cccc(C(F)(F)F)c1	15.4

Please fill in: growth reported for O=C1Nc2ccc(Cl)cc2/C1=C/c1ccc(OCc2ccc(Br)cc2F)cc1 = 116

###

Some compounds, each annotated with its measured growth.
- Tested on: A498 renal
- run description: NCI-60 one-dose screen, 48 h (100 = growth as untreated, 0 = no growth, -100 = all killed)
- test settings: 10 µM unless noted
This is part of a sample that, as a whole, favours compounds with a hit. Of some 83,000 tested, about 20% had one in any assay. Activity calls are given as the source filed them. How the source made its calls: active means growth percent below 10; inactive means the rest.

CS(=O)(=O)c1ccc(-c2nn(-c3ccccc3)cc2/C=N/NC(=O)c2ccncc2)cc1	113% (inactive)
O=C(CCCCCCN1CC(=O)N2[C@@H](c3ccc(Cl)c(F)c3)c3[nH]c4ccccc4c3C[C@H]2C1=O)NO	106% (inactive)
CCN1CCN(Cc2ccc(C(=O)Nc3nc4ccc(Oc5ccnc(C(=O)NC)c5)cc4s3)cc2C(F)(F)F)CC1	74.1% (inactive)
C=CCn1c(SCC(=O)Nc2cccc(C(=O)/C=C/c3ccc(Cl)cc3)c2)nc2ccccc2c1=O	78% (inactive)

Please fill in: growth reported for O=C1[C@H]2Cc3c([nH]c4ccccc34)[C@H](c3ccc(Cl)cc3)N2C(=O)CN1C1CCN(Cc2c(Cl)cccc2Cl)CC1 = 101% (inactive)

Please fill in: growth reported for COc1ccc(OC)c([C@H]2c3[nH]c4ccccc4c3C[C@H]3C(=O)N(CCCCCCC(=O)NO)CC(=O)N23)c1 = 102% (inactive)

Please fill in: growth reported for COc1cc2oc(-c3cccc(NC(=O)c4cc(NC(=O)[C@H](C)NC(=O)OC(C)(C)C)ccc4C)c3)cc(=O)c2c(OC)c1OC = 61.9% (inactive)

###

- Test system: OVCAR-5 ovarian
- run description: NCI-60 one-dose screen, 48 h (100 = growth as untreated, 0 = no growth, -100 = all killed)
- test settings: 10 µM unless noted
This is part of a sample that, as a whole, favours compounds with a hit. Of some 83,000 tested, about 20% had one in any assay. Active and inactive are the calls of the source. The calls were made as follows: active = growth percent below 10; inactive = the rest.
experimental endpoint: growth

Solved cases (3 shown):
COc1cc2c3c(n(CCCNCC4CC4)c(=O)c2cc1OC)-c1cc2c(cc1C3=O)OCO2	-66.8% (active)
O=C1c2c(c3c4cc(Br)ccc4[nH]c3c3ccc4ccccc4c23)C(=O)N1CCN1CCNCC1	113% (inactive)
N#Cc1c(-c2cccs2)cc(-c2cnccn2)nc1SCC(=O)NNC(=S)Nc1ccc(F)cc1	109% (inactive)

Please fill in: growth reported for O=C1[C@H]2Cc3c([nH]c4ccccc34)[C@H](c3ccc(Cl)cc3)N2C(=O)CN1C1CCN(Cc2c(Cl)cccc2Cl)CC1 = 89.2% (inactive)

Please fill in: growth reported for Cc1cn(-c2cc(NC(=O)c3cncc(C#Cc4cnc5ccc(O[C@H]6CCOC6)nn45)c3)cc(C(F)(F)F)c2)cn1 = 80.3% (inactive)

Please fill in: growth reported for CCN1CCN(Cc2ccc(C(=O)Nc3nc4ccc(Oc5ccnc(C(=O)NC)c5)cc4s3)cc2C(F)(F)F)CC1 = 76.7% (inactive)

Please fill in: growth reported for Oc1ccc(CSc2nnc(-c3ccccc3)o2)c2cccnc12 = 74% (inactive)

Please fill in: growth reported for Cc1occc1-c1nc2s/c(=C\c3cn(-c4ccccc4)nc3-c3ccccc3)c(=O)n2n1 = 99.5% (inactive)

###

- Tested on: HS 578T breast
- run description: NCI-60 one-dose screen, 48 h
- test settings: 10 µM unless noted
Compounds without any hit were thinned out: in the full panel of roughly 83,000, 20% have a hit. Calls of active or inactive are those of the source. How the source made its calls: active means growth percent below 10; inactive means the rest.
// one of active, inactive, no free text

COc1ccc2c(c1)c(-c1nnc(N)nc1-c1cn(C)c3ccccc13)cn2C	inactive
COc1cc(/C=N/n2cnc3oc(-c4ccccc4)cc3c2=N)cc(CN2CCN(C)CC2)c1O	inactive
Oc1ccc(-c2nnc(SCc3ccc(O)c4ncccc34)n2-c2ccccc2)cc1	inactive

Status in this test for COC(=O)[C@@]1(C)CC[C@]2(C)CC[C@]3(C)C(=CC(=O)[C@@H]4[C@@]5(C)Cc6c(n(CC#CCN7CCN(C)CC7)c7ccccc67)C(C)(C)[C@@H]5CC[C@]43C)[C@@H]2C1 ?
inactive

Status in this test for O=C(O)c1ccc(-n2cc(CNc3ccc(F)cc3)c(-c3ccc(C(F)(F)F)cc3)n2)cc1 ?
inactive

Status in this test for COc1ccc2c(C3=C(c4cn(C)c5ccccc45)C(=O)NC3=O)coc2c1 ?
active

###

- Tested on: COLO 205 colon
- run description: NCI-60 one-dose screen, 48 h (100 = growth as untreated, 0 = no growth, -100 = all killed)
- test settings: 10 µM unless noted
This is part of a sample that, as a whole, favours compounds with a hit. Of some 83,000 tested, about 20% had one in any assay. The source made the active and inactive calls. How the source made its calls: active means growth percent below 10; inactive means the rest.
experimental endpoint: growth

C#C[C@]1(O)CC[C@H]2[C@@H]3CC=C4c5sc(Nc6nc(C)cc(OC)n6)nc5CC[C@]4(C)[C@H]3CC[C@@]21C	78.5% (inactive)

Please fill in: growth reported for NS(=O)(=O)c1ccc(Nc2nc(N/N=C/c3ccc(F)cc3)nc(Nc3ccccc3)n2)cc1 = 20.9% (inactive)

Please fill in: growth reported for CC1=CC(=O)CC(C)(C)[C@@]1(O)/C=C/C(C)=C\C(=O)O = -57.6% (active)

Please fill in: growth reported for Oc1ccc(-c2nnc(SCc3ccc(O)c4ncccc34)o2)cc1 = 46.2% (inactive)

###

- System: HOP-92 NSCLC
- run description: NCI-60 one-dose screen, 48 h
- test settings: 10 µM unless noted
This is part of a sample that, as a whole, favours compounds with a hit. Of some 83,000 tested, about 20% had one in any assay. The source made the active and inactive calls. The calls were made as follows: active = growth percent below 10; inactive = the rest.
// one of True = active, False = inactive, no free text

Check out these entries, answers already filled in.
C=C(C)[C@@H]1CC[C@]2(COS(C)(=O)=O)CC[C@]3(C)[C@H](CC[C@@H]4[C@@]5(C)CCCNC(C)(C)[C@@H]5CC[C@]43C)[C@@H]12	False
COc1cnc2c(c1)C(=O)c1c-2n(CCCNCC2CC2)c(=O)c2cc(F)ccc12	True

Status in this test for COc1c([C@@H](CC(C)C)OC(C)=O)ccc2c1C(=O)OCc1cc(C)cc(O)c1O2 ?
True

Status in this test for CC(=O)Nc1ccc(NC(=O)Nc2cccc(-c3nc(-c4ccc(NC(=O)c5cccs5)cc4Cl)no3)c2)cc1C(F)(F)F ?
True

###

- Test system: HCT-116 colon
- run description: NCI-60 one-dose screen, 48 h (100 = growth as untreated, 0 = no growth, -100 = all killed)
- test settings: 10 µM unless noted
Compounds without any hit were thinned out: in the full panel of roughly 83,000, 20% have a hit.
Some compounds, each annotated with its measured growth.
Expressed in %, but write only the number.

Solved cases (4 shown):
ClC(Cl)c1nc(-c2cccs2)n2nc(-c3ccccc3)cc2n1	-23.7
CC(C)(C)n1nnnc1C(Nc1nccs1)c1cc2cccc3ccc4cccc1c4c32 (stereo not given)	91.7
COc1cc(C2=NN(C(C)=O)C(c3ccc(N4CCOCC4)cc3)C2)cc(OC)c1OC (stereo not given)	95.7
Clc1ccc(-c2csc(N/N=C/c3nc4ccccc4n3C3CC3)n2)cc1	96.3

Kindly note: HCT-116 colon, O=C(C[n+]1ccnc2ccccc21)c1ccc(O)c(O)c1 , growth value reported: 7.08
